Tested target: T1, rat amylin receptor (rat calcitonin receptor + rat RAMP 3) (rat, UniProt P32214 25-516; Q9JJ73 23-147)
T1 construct: whole, on cells; Cell membranes of transiently transfected BHK tk'ts 13 cells (Assay VI); also called rAmylin-R; rat amylin 3(a) receptor
T1 sequence (looked up) 1: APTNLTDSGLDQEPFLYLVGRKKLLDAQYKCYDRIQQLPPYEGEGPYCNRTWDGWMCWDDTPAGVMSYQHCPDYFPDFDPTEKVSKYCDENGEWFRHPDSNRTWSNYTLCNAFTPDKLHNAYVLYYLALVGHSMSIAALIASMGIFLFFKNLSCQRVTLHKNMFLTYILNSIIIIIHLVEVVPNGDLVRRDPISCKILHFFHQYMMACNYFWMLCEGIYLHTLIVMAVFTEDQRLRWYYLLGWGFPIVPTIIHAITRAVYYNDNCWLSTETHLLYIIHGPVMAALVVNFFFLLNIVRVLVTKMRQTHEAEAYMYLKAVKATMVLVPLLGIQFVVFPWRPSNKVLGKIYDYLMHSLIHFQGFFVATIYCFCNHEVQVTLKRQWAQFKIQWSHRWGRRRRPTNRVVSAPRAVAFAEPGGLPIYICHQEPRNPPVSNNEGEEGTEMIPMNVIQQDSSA
T1 sequence (looked up) 2: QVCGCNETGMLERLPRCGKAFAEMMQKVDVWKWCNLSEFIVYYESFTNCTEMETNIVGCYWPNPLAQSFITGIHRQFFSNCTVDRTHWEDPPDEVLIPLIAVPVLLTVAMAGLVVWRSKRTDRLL
Experiment summary: SPA competition vs 125I-rat amylin, membranes with rat CTR + rat RAMP3 (Assay VI)
Numbered stars: 1 amine (or outer) side, 2 acyl side, 3 side chain; on linkers, the order of the positions; unused ones are H or OH. Bridge positions count the residues as written; N and C are the ends. Side chains are listed from the residue outwards. Ends that are not written are not given here. * marks the point of attachment. C20 diacid = O=C(O)CCCCCCCCCCCCCCCCCCC(=O)*; γGlu = O=C(O)[C@H](CCC(=O)[*:2])N[*:1]; AEEA = NCCOCCOCC(=O)O
Result type: IC50 (nM)

Binder | Result type | Scale unit | Result number
KCNTATCATQRLANFLRHSSPNFGAIPSSTNVGRNTY (C20 diacid-gGlu on alpha-amino of the N-terminal residue; Cys2-Cys7 disulfide; C-terminal amide (as human amylin), Acylated analogue of human amylin; also called compound 39) [N^α1-[(4S)-4-carboxy-4-(19-carboxynonadecanoylamino)butanoyl]-[Arg17,Pro21,Pro27,Arg34]-h-amylin] | IC50 | nM | 1.77
KCNTATCATQRLANFLRHSSPNFGAIPSSTNVGSETY (C20 diacid-gGlu on alpha-amino of the N-terminal residue; Cys2-Cys7 disulfide; C-terminal amide (as human amylin), Acylated analogue of human amylin; also called compound 23) [N^α1-[(4S)-4-carboxy-4-(19-carboxynonadecanoylamino)butanoyl]-[Arg17,Pro21,Pro27,Glu35]-h-amylin] | IC50 | nM | 1.12
KCNTATCATQRLANFLRHSSPNFGAIPSSTNVGSKTY (C20 diacid-gGlu on alpha-amino of the N-terminal residue; Cys2-Cys7 disulfide; C-terminal amide (as human amylin), Acylated analogue of human amylin; also called compound 34) [N^α1-[(4S)-4-carboxy-4-(19-carboxynonadecanoylamino)butanoyl]-[Arg17,Pro21,Pro27,Lys35]-h-amylin] | IC50 | nM | 1.72
K([AEEA-γGlu-C20 diacid])CNTATCATQRLANFLRHSSPNFGAIPPSTPVGSNTY-NH2 (disulfide 2-7, Acylated analogue of human amylin; also called compound 53) | IC50 | nM | 0.084
